- Tested on: Rattus norvegicus
- TEST_DETAILS: Percent glycaemia evolution at 200 mg/kg at 2 hr after a sharp administration (J1) in Wistar rats
- Format: functional
Assign Glycaemia evolution to each entry below.
Numbers only, in %.

1) NC(=O)NNC(=O)c1cc(O)c2cc(F)ccc2n1; -7
2) CCOc1cc(C(=O)N=C(N)N)nc2cc(OC)ccc12; 6
3) Cl.N=C(N)NC(=O)c1cc(O)c2cc(F)ccc2n1; -7

For `COc1ccc2ncc(C(=O)N=C(N)N)c(O)c2c1.Cl` on Rattus norvegicus, measured Glycaemia evolution was -8

###

Assign Glycaemia evolution to each entry below.
- Tested on: Rattus norvegicus
- TEST_DETAILS: Percent glycaemia evolution at 20 mg/kg at 2 hr after a sharp administration (J1) in Wistar rats
- Assay type: functional
Give bare numbers, in %.

Please review the entries below; each comes with its answer.
1. CCOc1cc(C(=O)Nc2nn[nH]n2)nc2ccc(F)cc12; 8
2. CCOc1cc(C(=O)NNC(N)=O)nc2ccc(F)cc12; 3
3. Cl.N=C(N)NNC(=O)c1cc(O)c2cc(F)ccc2n1; 8
4. Cl.N=C(N)NC(=O)c1cc(O)c2cc(F)ccc2n1; -5
5. CCOc1cc(C(=O)N=C(N)N)nc2ccc(F)cc12.Cl; -8

For each listed entry, give its Glycaemia evolution.
1. CCn1cc(C(=O)N=C(N)N)c(=O)c2cc(OC)ccc21.Cl
2. CCOc1cc(C(=O)N=C(N)N)nc2cc3c(cc12)OCO3.Cl
3. CCn1cc(C(=O)N=C(N)N)c(=O)c2ccc(C)nc21.Cl
4. CCOc1cc(C(=O)N=C(N)N)nc2cc(OC)ccc12
5. CCN1CC(C(=O)N/N=C(\N)N=C(N)N)C(=O)c2cc(OC)ccc21.Cl (configuration not stated)
6. CCn1cc(C(=O)NN=C(N)N)c(=O)c2cc(OC)ccc21.Cl
7. Cl.N=C(N)NC(=O)c1cc(Cl)c2cc(F)ccc2n1

Reply |
1. 0
2. 1
3. 1
4. 2
5. -3
6. -10
7. 19

Values were extracted from ChEMBL document CHEMBL1133273.
